Assay: MTT relative viability, PhTERT-SEAP (H1299) cells
Conditions: human
MEASURED_METRIC: viability at 48 h, 339 µM (%)

1) CCNc1cccc2c1C(=O)c1cccc(NCC)c1C2=O [IVa, 1,5-Bis(ethylamino)anthraquinone]    103

---

Recorded melting point values for a group of compounds are listed next.
MEASURED_METRIC: melting point

1. Nc1ccccc1Sc1cccc2c1C(=O)c1cccc(Sc3ccccc3N)c1C2=O [IIf, 1,5-Bis(o-aminophenylthio)-Anthraquinone]    283 to 284 °C
2. O=C(CCc1ccccc1)Oc1cccc2c1C(=O)c1cccc(OC(=O)CCc3ccccc3)c1C2=O [IIIn]    219 to 220 °C
3. O=C1c2cccc(NCCc3ccccc3)c2C(=O)c2cccc(NCCc3ccccc3)c21 [IVs, 1,5-Bis(phenylethylamino)-anthraquinone]    205 to 207 °C
4. O=C1c2cccc(SCCc3ccccc3)c2C(=O)c2cccc(SCCc3ccccc3)c21 [IIk, 1,5-Bis(phenylethylthio)-anthraquinone]    209 to 210 °C
